B1: minF1; a variant is named by its letters at N, in order (parent)
chain: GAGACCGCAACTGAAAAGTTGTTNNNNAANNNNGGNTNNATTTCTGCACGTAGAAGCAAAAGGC

Variants of: B1
Test method notes: fraction ligated after 30 min (ligated reads / total reads); higher = more ligase activity
Measurement parameters: with F1*subA RNA substrate (template-directed ligation), 42 °C
Quantity measured: fraction ligated
Reply briefly: the number, and no unit.

Ask: Would you mind telling me what fraction ligated value was observed for ATCGATGGGTG ?
Reply: 0.00493

Ask: Then TAGATATGTGA ?
Reply: 0.00128

Ask: TCAAGATGTGA T23A A28T A29G ?
Reply: 0.00482

Ask: Would you kindly repeat that for ACGATGGAGTA ?
Reply: 0.00344

Ask: Would you mind doing ATAGTGGAGTA as well?
Reply: 0.00346

Attribution: the supplement of paper PMC6755084
